B1: BTBD1 (parent)
chain: TSAEIELPDVEPAAFLALLRFLYS

variants of: B1; assay: protein stability index of a GFP-peptide fusion (GPS, HEK-293T) (PSI 1-6); higher = more stable; settings: c terminus: a fixed tail appended;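 note: lentivirally expressed fusions sorted by FACS into six bins by GFP to DsRed ratio, PSI derived from sequencing read proportions per bin multiplied by bin number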
Provide the reported protein stability index of each item.
The reply should be a number, written without any unit.

# input Find the recorded protein stability index belonging to I5N and report it.
# output 2.14

# input Find the recorded protein stability index belonging to P8Y and report it.
# output 2.37

# input Find the recorded protein stability index belonging to D9A and report it.
# output 1.84

# input Find the recorded protein stability index belonging to S2G and report it.
# output 2.15

# input Find the recorded protein stability index belonging to A14D and report it.
# output 2

# input Find the recorded protein stability index belonging to L7E and report it.
# output 1.63

# input Find the recorded protein stability index belonging to S2F and report it.
# output 2

# input Find the recorded protein stability index belonging to P8D and report it.
# output 1.95

# input Find the recorded protein stability index belonging to E6N and report it.
# output 1.96

# input Find the recorded protein stability index belonging to A17K and report it.
# output 1.88

# input Find the recorded protein stability index belonging to L18I and report it.
# output 2.69

# input Find the recorded protein stability index belonging to E6V and report it.
# output 1.67

# input Find the recorded protein stability index belonging to E6G and report it.
# output 1.75

# input Find the recorded protein stability index belonging to P8F and report it.
# output 2.23

# input Find the recorded protein stability index belonging to T1S and report it.
# output 1.65
